Every entry's value here was drawn from patent US20250115677A1.

Target: T1, chimeric construct (CHIM) (human)
T1 construct: CEACAM6 AA 1-273 joined to the membrane-peripheral region containing domain B3 of CEA (AA 596-687), C-terminal 6xHis; also called chimeric CEA
T1 chain: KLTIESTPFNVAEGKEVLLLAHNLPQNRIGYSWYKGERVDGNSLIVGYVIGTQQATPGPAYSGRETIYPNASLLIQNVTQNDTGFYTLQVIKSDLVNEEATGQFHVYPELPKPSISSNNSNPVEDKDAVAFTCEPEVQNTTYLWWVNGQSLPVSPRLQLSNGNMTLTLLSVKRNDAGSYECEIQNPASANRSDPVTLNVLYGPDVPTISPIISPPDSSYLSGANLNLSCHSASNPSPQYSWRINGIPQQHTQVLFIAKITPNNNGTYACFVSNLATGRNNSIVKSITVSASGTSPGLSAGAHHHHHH
Assay: SPR; binding to CHIM
Value kind: Kd (nM)
Note: unit nM is implicit; provide only the numeric part.

Given BGA2107 (antibody, human IgG1, V domains shown, Built on the BGA7592-1F-ph-M (BGA2433) template; human IgG1/kappa) VH: QVQLVQSGAEVKKPGASVKVSCKASGYIFTSYWLHWVRQAPGQGLEWIGYINPNTGYTSYAQKFQGRVTMTRDTSTSTVYMELSSLRSEDTAVYYCAREYGNYNYPLDYWGQGTLVTVSS VL: DIQMTQSPSSLSASVGDRVTITCRASENQYGYLAWYQQKPGKVPKLLIYNTKNLVEGVPSRFSGSGSGTDFTLTISSLQPEDVATYYCQHHLGTPYTFGQGTKVEIK , state its recorded Kd.
19.2

Kd lookup needed for BGA6710 (antibody, human IgG1, V domains shown, BGA2433 with W33Y (VH) and T51Y (VL); wild-type human IgG1 format) VH: QVQLVQSGAEVKKPGASVKVSCKASGYIFTSYYLHWVRQAPGQGLEWIGYINPQTGYTSYAQKFQGRVTMTRDTSTSTVYMELSSLRSEDTAVYYCAREYGNYNYPLDYWGQGTLVTVSS VL: DIQMTQSPSSLSASVGDRVTITCRASENQYGYLAWYQQKPGKVPKLLIYNYKNLVEGVPSRFSGSGSGTDFTLTISSLQPEDVATYYCQHHLGTPYTFGQGTKVEIK , thanks.
15.1

Which value of Kd has been reported for BGA1789 (antibody, human IgG1, V domains shown, Built on the BGA7592-1F-ph-M (BGA2433) template; human IgG1/kappa) VH: QVQLVQSGAEVKKPGASVKVSCKASGYIFTSYWLHWVRQAPGQGLEWIGYINPQTGYTSYAQKFQGRVTMTRDTSTSTVYMELSSLRSEDTAVYYCAREYGNYNYPLDYWGQGTLVTVSS VL: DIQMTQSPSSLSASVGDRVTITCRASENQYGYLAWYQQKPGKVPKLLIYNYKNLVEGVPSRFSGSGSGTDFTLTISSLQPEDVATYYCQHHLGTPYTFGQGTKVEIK in the records?
14.4
